Reference source: PubChem BioAssay (EPA / NIEHS)

- testedTarget: human Adrenergic, Alpha 2c Receptor (Adra2C), ADRA2C (gene 152) (UniProt P18825)
- Sequence (P18825 whole entry, looked up): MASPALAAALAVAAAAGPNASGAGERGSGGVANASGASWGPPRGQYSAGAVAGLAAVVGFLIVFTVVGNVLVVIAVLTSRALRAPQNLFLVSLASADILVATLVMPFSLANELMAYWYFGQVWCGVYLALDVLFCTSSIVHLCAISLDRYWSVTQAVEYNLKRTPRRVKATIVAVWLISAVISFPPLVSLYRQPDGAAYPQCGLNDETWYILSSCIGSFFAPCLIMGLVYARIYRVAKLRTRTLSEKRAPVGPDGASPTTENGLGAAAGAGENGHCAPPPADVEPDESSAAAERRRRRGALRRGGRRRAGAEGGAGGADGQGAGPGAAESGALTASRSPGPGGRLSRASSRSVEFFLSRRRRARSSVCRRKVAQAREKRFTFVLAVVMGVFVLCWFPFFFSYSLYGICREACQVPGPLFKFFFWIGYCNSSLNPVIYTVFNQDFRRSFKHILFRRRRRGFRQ
- runDescription: NVS_GPCR_hAdra2C: NovaScreen (NVS) G Protein-Coupled Receptor Assay for human Adrenergic, Alpha 2c Receptor (Adra2C) (AID 2283259)
Records with an inconclusive call do not appear. The source made the active and inactive calls. The calls were made as follows: active = hit-call score of the fitted dose curve at least 0.9, where 1 is the maximum; inconclusive = response in the unintended direction; inactive = score below 0.9.
measurementKind: AC50

COc1cccc(-c2ccc(/C=C\CN3CCCCCC3)cc2Cl)c1 | 0.401 µM (active)
CCOC(=O)c1ccc(C2CCC(NC[C@H](O)COc3ccc(O)c(NS(C)(=O)=O)c3)CC2)cc1 (stereo not given in full) | 7.95 µM (active)
CCOC(=O)COc1ccc2c(c1)CC(NCC(O)c1cccc(Cl)c1)CC2 (stereo not given) | 3.81 µM (active)
CCOc1cccc(-n2cc(C(=O)N3CCN(c4cc(C(=O)O)c5ccccc5c4)CC3)nc2-c2ccc(C)cc2)c1 | 12.3 µM (active)

---

- Read-out: Interleukin-8 (IL8), CXCL8 (gene 3576)
- runDescription: BSK_SAg_IL8: BioMAP Diversity Plus: SAg Assay for Interleukin-8 (IL8) Biomarker Activity (AID 2283094)
- protocolConditions: primary human HUVEC with PBMC; actives raise or lower the signal
Activity calls are given as the source filed them. Rule for the calls: active = hit-call score of the fitted dose curve at least 0.9, where 1 is the maximum; inactive = score below 0.9.
measurementKind: AC50

C=CC(=C)CCC=C(C)C | inactive
CCNc1ccccc1 | inactive
CC(C)CCCCCCOC(=O)c1ccc(C(=O)OCCCCCCC(C)C)c(C(=O)OCCCCCCC(C)C)c1 | inactive
CCCCCCCCO | inactive
COCCOc1cc2cc(C(=O)NC3CCN(C(C)C)CC3)n(CC(=O)Nc3ccc(Cl)cn3)c2cn1 | inactive
CCOc1cccc(-n2cc(C(=O)N3CCN(c4cc(C(=O)O)c5ccccc5c4)CC3)nc2-c2ccc(C)cc2)c1 | 11.4 µM (active)
C[C@](N)(Cc1ccc(O)c(O)c1)C(=O)O | inactive
COc1ccc2sc(C(=O)Nc3nnn[nH]3)c(OC(C)C)c2c1 | 16.6 µM (active)
CCCCCCc1ccc(O)cc1O | 24.4 µM (active)
NC(=O)NO | inactive
COC(=O)CC(=O)OC | inactive
CN(C)c1ccc(Cc2ccc(N(C)C)cc2)cc1 | inactive
Cc1ccc(N)cc1O | inactive

---

- Read-out: Heat shock 70 kDa protein 1 (HSPA1A), gene 3303
- runDescription: LTEA_HepaRG_HSPA1A: Life Technologies and Expression Analysis (LTEA) Assay for Heat shock 70 kDa protein 1 (HSPA1A) using HepaRG (AID 2283502)
- protocolConditions: mRNA level, 48 h; actives raise or lower the signal
Activity calls are given as the source filed them. How the source made its calls: active means hit-call score of the fitted dose curve at least 0.9, where 1 is the maximum; inactive means score below 0.9.
Outcome codes: active, inactive

CCCCCCCCO | inactive
CCOCCOCCOCCO | inactive
NC(=O)NO | inactive
CN(C)c1ccc(N=NS(=O)(=O)O)cc1 | inactive
On1ccccc1=S | inactive
COC(=O)CC(=O)OC | inactive
CCC(C)(C)C(=O)O[C@H]1C[C@@H](C)C=C2C=C[C@H](C)[C@H](CC[C@@H]3C[C@@H](O)CC(=O)O3)[C@H]21 | inactive
CC(=O)c1ccc2c(c1)[C@H](NC(=O)c1ccc(F)cc1)[C@@H](O)C(C)(C)O2 | inactive
Cc1ccc(O)cc1 | inactive
Cn1c(=O)c2c(ncn2C)n(C)c1=O | inactive
O=C1CCC(N2C(=O)c3ccccc3C2=O)C(=O)N1 (centres undefined) | inactive
COc1ccc2sc(C(=O)Nc3nnn[nH]3)c(OC(C)C)c2c1 | active
O=C1OC(=O)C2C3C=CC(C3)C12 (centres undefined) | inactive
O=c1n(CC2CO2)c(=O)n(CC2CO2)c(=O)n1CC1CO1 (centres undefined) | inactive
